experiment: Pharmacokinetics of TH302 in Beagle Dogs (Table 6); type: in vivo; details: male, dog, plasma, intravenous, Males, 8 mg/kg, read-out: Vss
readout-kind: Vd (L/kg)
Answer in L/kg, number only, no unit symbol.

Vd for Cn1c(COP(=O)(NCCBr)NCCBr)cnc1[N+](=O)[O-] ? 0.982

----------
assay: Pharmacokinetics in cynomolgus monkeys (20 mg/kg i.v.); type: in vivo; conditions: cynomolgus monkey, plasma, iv, 20 mg/kg, monkeys, read-out: Vss
readout-kind: Vd (L/kg)
The reply should be a number in L/kg, with the unit left off.

Can you look up the measured Vd of Cn1c(COP(=O)(NCCBr)NCCBr)cnc1[N+](=O)[O-] for me? 2.92
